Serine/threonine-protein kinase PLK1 (Homo sapiens, UniProt P53350) pKi, compiled from various sources.
pKi: −log10 of the molar value.

Consider the following illustrative entries.
C[C@@H](Nc1ncc(C#N)c(-c2c[nH]c3ncc(C(F)(F)F)cc23)n1)C1CCN(C(=O)CN)CC1: > 8.52
CC[C@@H]1c2cncn2-c2cnc(Nc3ccc(C(=O)NC4CC4)cc3OC)nc2N1C1CCCC1: > 9.00
Cc1nc(N[C@H]2CC[C@H](Oc3cc(F)c(F)c(F)c3)C2)nc2c1NC(=O)[C@H](C)N2C: < 5.40

IN: Recall the reported pKi of COc1cc(C(=O)N[C@@H]2C[C@H]2c2ccccc2)ccc1Nc1ncc2c(n1)N(C1CCCC1)CC(C)(C)C(=O)N2C when tested on Serine/threonine-protein kinase PLK1 (Homo sapiens, UniProt P53350).
OUT: > 8.00

IN: Using Serine/threonine-protein kinase PLK1 (Homo sapiens, UniProt P53350) as the test system, report measured pKi of CC(=O)C(=O)N1CCC([C@@H](C)Nc2ncc(C#N)c(-c3c[nH]c4ncc(C(F)(F)F)cc34)n2)CC1 .
OUT: > 8.52

IN: Give pKi for CN1C(=O)C(C)(C)CN(C2CCCC2)c2nc(Nc3cccc4[nH]ncc34)ncc21 tested on Serine/threonine-protein kinase PLK1 (Homo sapiens, UniProt P53350).
OUT: 7.00 to 8.00

IN: Under Serine/threonine-protein kinase PLK1 (Homo sapiens, UniProt P53350): report pKi of COc1cc(C(=O)N[C@@H]2CCCC[C@H]2O)ccc1Nc1ncc2c(n1)N(C1CCCC1)CC(C)(C)C(=O)N2C .
OUT: > 8.00

* * *

Compiled from multiple publications: Ki readings for Serine/threonine-protein kinase PLK1 (Homo sapiens, UniProt P53350).

COc1ccc(CNc2ncc(C#N)c(-c3c[nH]c4ncc(C(F)(F)F)cc34)n2)cc1Cl: 0.003 to 0.04 µM

IN: # return Ki for COc1cc(C(=O)NC2CCNCC2)ccc1Nc1ncc2c(n1)N(C1CCCC1)CC(C)(C)C(=O)N2C , test system: Serine/threonine-protein kinase PLK1 (Homo sapiens, UniProt P53350)
OUT: < 0.01 µM

IN: With Serine/threonine-protein kinase PLK1 (Homo sapiens, UniProt P53350) as the test system, provide measured Ki for this compound: N#Cc1cnc(NC[C@H](O)CO)nc1-c1c[nH]c2ncc(C(F)(F)F)cc12
OUT: 0.003 to 0.04 µM

IN: State Ki on Serine/threonine-protein kinase PLK1 (Homo sapiens, UniProt P53350). Entry: CC1(C)c2[nH]nc(NC(=O)C3([Si](C)(C)C)CCC3)c2CN1C(=O)Nc1c(F)ccc2cc(Cl)oc12
OUT: ≥ 5 µM

* * *

pKi: −log10 of the molar value.
For reference, the following pKi results for Serine/threonine-protein kinase PLK1 (Homo sapiens, UniProt P53350) were taken from various sources.

N#Cc1cnc(NCc2ccc(-n3cccn3)cc2)nc1-c1c[nH]c2ncc(C(F)(F)F)cc12: < 7.40
CN1C(=O)C(C)(C)CN(C2CCCC2)c2nc(Nc3ccccc3)ncc21: 7.00 to 8.00
CCN1C(=O)[C@](C)(CC)N(CC)c2nc(NCc3cnn(Cc4ccc(F)cc4)c3)ncc21: < 5.40
N#Cc1cnc(NCc2ccc(-c3cccs3)cc2)nc1-c1c[nH]c2ncc(C(F)(F)F)cc12: < 7.40
CC[C@@H](N)C(=O)N1CCC([C@@H](C)Nc2ncc(C#N)c(-c3c[nH]c4ncc(C(F)(F)F)cc34)n2)CC1: > 8.52
COc1cc(C(=O)Nc2ccncc2C(F)(F)F)ccc1Nc1ncc2c(n1)N(C1CCCC1)CC(C)(C)C(=O)N2C: > 8.00

Shifting focus to the molecule that follows.
IN: Give pKi; test system Serine/threonine-protein kinase PLK1 (Homo sapiens, UniProt P53350); molecule C[C@@H](Nc1ncc(C#N)c(-c2c[nH]c3ncc(C(F)(F)F)cc23)n1)C1CCN(CC(N)=O)CC1
OUT: > 8.52
